Each recorded value in this set is attributed to paper PMC7284125.

test system: S. mansoni schistosomulae; test: Motility assay on schistosomulae (pixel displacement, relative to DMSO control); assay type: cell-based, Schistosoma mansoni; conditions: Selleckchem customized library secondary screen, 24h, D5, 10 µM
Cut-off 2 on Fractional motility, inclusive. At or above means criterion met; below means criterion not met.

Prompt: Determine whether measured Fractional motility meets or exceeds 2 for Cc1ccc(Sc2ccccc2N2CCNCC2)c(C)c1
Response: criterion not met

Prompt: Does Fractional motility meet or surpass 2 for CN1CCC(CNc2ccc3ncc(-c4cccc(OC(F)(F)F)c4)n3n2)CC1 ?
Response: criterion met

Prompt: Does the molecule CN(C)CC/C=C1/c2ccccc2Sc2ccc(Cl)cc21 have recorded Fractional motility that is 2 or more?
Response: criterion met

Prompt: State whether the measured Fractional motility reaches 2, counting equality as reaching it, for CN(C)[C@@H](CCOc1cccc2ccccc12)c1ccccc1
Response: criterion met

Prompt: // inclusive: Fractional motility at least 2? input: Fc1ccc([C@@H]2CCNC[C@H]2COc2ccc3c(c2)OCO3)cc1
Response: criterion not met

Prompt: Does CC(C)(Cc1ccc2ccccc2c1)NC[C@@H](O)COc1cccc(Cl)c1C#N have a reported Fractional motility of at least 2?
Response: criterion not met
